Biological target: PhoP (Mycobacterium tuberculosis, UniProt P71814 1-247)
Assay: ITC
READOUT: pKd
Here pKd is given on a logarithmic scale as minus log10 of the concentration in mol/L.

Incoming: Record request: pKd value, item sel36 (dsDNA) DNA 1: GATTCACAGCTGATTCACAGCATCTAG DNA 2: CTAGATGCTGTGAATCAGCTGTGAATC
Outgoing: 8.10

The reported numbers originate from paper PMC5542402.
